tested on: steroid 5α-reductase; experiment: Inhibition effects on steroid 5α-reductase activity (rat prostate enzyme, [4-14C]-testosterone); type: biochemical, male rats; conditions: pH 6.5, 37° C., 20 minutes

>  <Compound>
C/C(=C\C(=O)Nc1ccccc1OCCCC(=O)O)c1ccc2c(ccn2C(c2ccc(F)cc2)c2ccc(F)cc2)c1 [Compound 59]

>  <Target of assay>
steroid 5α-reductase

>  <inhibition rate (%), 10^-7 M>
92

$$$$
>  <Compound>
C/C(=C\C(=O)Nc1ccccc1OCCCC(=O)O)c1ccc2c(ccn2C(C)c2ccccc2)c1 (centres unmarked) [Compound 38]

>  <Target of assay>
steroid 5α-reductase

>  <inhibition rate (%), 10^-7 M>
78

$$$$
>  <Compound>
CCCC(C)C(C)n1ccc2cc(/C(C)=C/C(=O)Nc3ccccc3OCCCC(=O)O)ccc21 (centres unmarked) [Compound 22]

>  <Target of assay>
steroid 5α-reductase

>  <inhibition rate (%), 10^-7 M>
70

$$$$
>  <Compound>
CCCCCn1ccc2cc(/C(C)=C/C(=O)Nc3ccccc3OCCCC(=O)O)ccc21 [Compound 6]

>  <Target of assay>
steroid 5α-reductase

>  <inhibition rate (%), 10^-7 M>
81

$$$$
>  <Compound>
CCCC(CCC)n1ccc2cc(/C(=C/C(=O)Nc3ccccc3OCCCC(=O)O)CC)ccc21 [Compound 88]

>  <Target of assay>
steroid 5α-reductase

>  <inhibition rate (%), 10^-7 M>
95

$$$$
>  <Compound>
C/C(=C\C(=O)Nc1ccccc1OCCCC(=O)O)c1ccc2c(ccn2C(c2ccccc2)c2ccccc2)c1 [Compound 2]

>  <Target of assay>
steroid 5α-reductase

>  <inhibition rate (%), 10^-7 M>
95

$$$$
>  <Compound>
CCCC(CCC)n1ccc2cc(/C(C)=C/C(=O)Nc3ccc(F)cc3OCCCC(=O)O)ccc21 [Compound 67]

>  <Target of assay>
steroid 5α-reductase

>  <inhibition rate (%), 10^-7 M>
98

$$$$
>  <Compound>
C/C(=C\C(=O)Nc1ccccc1OCCCC(=O)O)c1ccc2c(ccn2C(CC(C)C)c2ccccc2)c1 (centres unmarked) [Compound 77]

>  <Target of assay>
steroid 5α-reductase

>  <inhibition rate (%), 10^-7 M>
97

$$$$
>  <Compound>
CCCCC(CCC)n1ccc2cc(/C(=C/C(=O)Nc3ccc(F)cc3OCCCC(=O)O)CC)ccc21 (centres unmarked) [Compound 91]

>  <Target of assay>
steroid 5α-reductase

>  <inhibition rate (%), 10^-7 M>
98

$$$$
>  <Compound>
C/C(=C\C(=O)Nc1ccccc1OCCCC(=O)O)c1ccc2c(ccn2C(c2ccccc2)c2ccc(C(F)(F)F)cc2)c1 (centres unmarked) [Compound 83]

>  <Target of assay>
steroid 5α-reductase

>  <inhibition rate (%), 10^-7 M>
90

$$$$
>  <Compound>
C/C(=C\C(=O)Nc1ccccc1OCCCC(=O)O)c1ccc2c(ccn2C(c2ccccc2)c2ccccc2C)c1 (centres unmarked) [Compound 52]

>  <Target of assay>
steroid 5α-reductase

>  <inhibition rate (%), 10^-7 M>
90

$$$$
>  <Compound>
CCC(c1ccccc1)n1ccc2cc(/C(C)=C/C(=O)Nc3ccccc3OCCCC(=O)O)ccc21 (centres unmarked) [Compound 40]

>  <Target of assay>
steroid 5α-reductase

>  <inhibition rate (%), 10^-7 M>
78

$$$$
>  <Compound>
CCCCC(c1ccccc1)n1ccc2cc(/C(C)=C/C(=O)Nc3ccccc3OCCCC(=O)O)ccc21 (centres unmarked) [Compound 42]

>  <Target of assay>
steroid 5α-reductase

>  <inhibition rate (%), 10^-7 M>
89

$$$$
>  <Compound>
CCCCC(CCC)n1ccc2cc(/C(=C/C(=O)Nc3ccccc3OCCCC(=O)O)CC)ccc21 (centres unmarked) [Compound 90]

>  <Target of assay>
steroid 5α-reductase

>  <inhibition rate (%), 10^-7 M>
79

$$$$

* * *

tested on: steroid 5α-reductase; assay: Inhibition effects on steroid 5α-reductase activity (rat prostate enzyme, [4-14C]-testosterone); format: biochemical, male rats; conditions: pH 6.5, 37° C., 20 minutes

>  <Compound>
CCCCC(c1ccccc1C)n1ccc2cc(/C(C)=C/C(=O)Nc3ccccc3OCCCC(=O)O)ccc21 (stereo not drawn) [Compound 79]

>  <inhibition rate (%), 10^-7 M>
90%

$$$$
>  <Compound>
CC/C(=C\C(=O)Nc1ccccc1OCCCC(=O)O)c1ccc2c(ccn2C(CC(C)C)CC(C)C)c1 [Compound 92]

>  <inhibition rate (%), 10^-7 M>
91%

$$$$
>  <Compound>
COc1ccc(C(c2ccc(OC)cc2)n2ccc3cc(/C(C)=C/C(=O)Nc4ccccc4OCCCC(=O)O)ccc32)cc1 [Compound 60]

>  <inhibition rate (%), 10^-7 M>
87%

$$$$
>  <Compound>
CCCC(C)n1ccc2cc(/C(C)=C/C(=O)Nc3ccccc3OCCCC(=O)O)ccc21 (stereo not drawn) [Compound 16]

>  <inhibition rate (%), 10^-7 M>
88%

$$$$
>  <Compound>
C/C(=C\C(=O)Nc1ccccc1OCCCC(=O)O)c1ccc2c(ccn2C(c2ccc(C)cc2)c2ccc(C)cc2)c1 [Compound 54]

>  <inhibition rate (%), 10^-7 M>
89%

$$$$
>  <Compound>
CC/C(=C\C(=O)Nc1ccccc1OCCCC(=O)O)c1ccc2c(ccn2C(c2ccc(F)cc2)c2ccc(F)cc2)c1 [Compound 94]

>  <inhibition rate (%), 10^-7 M>
97%

$$$$
>  <Compound>
CCCC(CC)n1ccc2cc(/C(C)=C/C(=O)Nc3ccccc3OCCCC(=O)O)ccc21 (stereo not drawn) [Compound 68]

>  <inhibition rate (%), 10^-7 M>
92%

$$$$
>  <Compound>
CC/C(=C\C(=O)Nc1ccccc1OCCCC(=O)O)c1ccc2c(ccn2C(c2ccccc2)c2ccccc2)c1 [Compound 93]

>  <inhibition rate (%), 10^-7 M>
94%

$$$$
>  <Compound>
C/C(=C\C(=O)Nc1ccccc1OCCCC(=O)O)c1ccc2c(ccn2C(C)CCCC(C)C)c1 (stereo not drawn) [Compound 76]

>  <inhibition rate (%), 10^-7 M>
70%

$$$$
>  <Compound>
C/C(=C\C(=O)Nc1ccc(F)cc1OCCCC(=O)O)c1ccc2c(ccn2C(c2ccccc2)c2ccccc2)c1 [Compound 48]

>  <inhibition rate (%), 10^-7 M>
93%

$$$$
>  <Compound>
CCCCC(CC)n1ccc2cc(/C(C)=C/C(=O)Nc3ccccc3OCCCC(=O)O)ccc21 (stereo not drawn) [Compound 18]

>  <inhibition rate (%), 10^-7 M>
90%

$$$$
>  <Compound>
C/C(=C\C(=O)Nc1ccccc1OCCCC(=O)O)c1ccc2c(ccn2C(c2ccccc2)c2ccc(F)cc2)c1 (stereo not drawn) [Compound 57]

>  <inhibition rate (%), 10^-7 M>
92%

$$$$
>  <Compound>
C/C(=C\C(=O)Nc1ccccc1OCCCC(=O)O)c1ccc2c(ccn2C(c2ccccc2)c2ccc(C)cc2)c1 (stereo not drawn) [Compound 53]

>  <inhibition rate (%), 10^-7 M>
84%

$$$$
>  <Compound>
C/C(=C\C(=O)Nc1ccccc1OCCCC(=O)O)c1ccc2c(ccn2C(c2ccccc2)c2ccccc2F)c1 (stereo not drawn) [Compound 58]

>  <inhibition rate (%), 10^-7 M>
93%

$$$$
>  <Compound>
CCCC(CCC)n1ccc2cc(/C(=C/C(=O)Nc3ccc(F)cc3OCCCC(=O)O)CC)ccc21 [Compound 89]

>  <inhibition rate (%), 10^-7 M>
95%

$$$$

* * *

The following compounds are shown together with reported Acute toxicity (MLD), minimum lethal dose values.
test system: male dd mice; experiment: Acute Toxicity Test (oral, mice); format: in vivo; settings: oral 300 mg/kg, mortality observed seven days after administration
Quantity name: Acute toxicity (MLD), minimum lethal dose

>  <Compound>
CCCC(C)n1ccc2cc(/C(C)=C/C(=O)Nc3ccccc3OCCCC(=O)O)ccc21 (centres unmarked)

>  <Target of assay>
male dd mice

>  <Result>
> 300 mg/kg

$$$$
>  <Compound>
CCCCCn1ccc2cc(/C(C)=C/C(=O)Nc3ccccc3OCCCC(=O)O)ccc21

>  <Target of assay>
male dd mice

>  <Result>
> 300 mg/kg

$$$$
>  <Compound>
CCC(C)n1ccc2cc(/C(C)=C/C(=O)Nc3ccccc3OCCCC(=O)O)ccc21 (centres unmarked)

>  <Target of assay>
male dd mice

>  <Result>
> 300 mg/kg

$$$$
>  <Compound>
C/C(=C\C(=O)Nc1ccccc1OCCCC(=O)O)c1ccc2c(ccn2C2CCCc3ccccc32)c1 (centres unmarked)

>  <Target of assay>
male dd mice

>  <Result>
> 300 mg/kg

$$$$
>  <Compound>
C/C(=C\C(=O)Nc1ccccc1OCCCC(=O)O)c1ccc2c(ccn2C(c2ccccc2)c2ccccc2C)c1 (centres unmarked)

>  <Target of assay>
male dd mice

>  <Result>
> 300 mg/kg

$$$$
>  <Compound>
C/C(=C\C(=O)Nc1ccccc1OCCCC(=O)O)c1ccc2c(ccn2C(c2ccccc2)C(C)C)c1 (centres unmarked)

>  <Target of assay>
male dd mice

>  <Result>
> 300 mg/kg

$$$$
>  <Compound>
CCCCCCn1ccc2cc(/C(C)=C/C(=O)Nc3ccccc3OCCCC(=O)O)ccc21

>  <Target of assay>
male dd mice

>  <Result>
> 300 mg/kg

$$$$
>  <Compound>
CCCC(c1ccccc1)n1ccc2cc(/C(C)=C/C(=O)Nc3ccccc3OCCCC(=O)O)ccc21 (centres unmarked)

>  <Target of assay>
male dd mice

>  <Result>
> 300 mg/kg

$$$$
